B1: library; a variant is named by its letters at N, in order (parent)
chain: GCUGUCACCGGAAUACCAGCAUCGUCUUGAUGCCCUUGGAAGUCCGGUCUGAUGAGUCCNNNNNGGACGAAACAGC

Variants of: B1
Assay: FACS-Seq fitted mean relative fluorescence mCherry/BFP without ligand (log10 relative fluorescence); higher = higher reporter protein expression
Conditions: HEK293T, ligand present: no
Response field class: string, computed from recorded FACS-Seq fitted mean (log10) by ranges 1 (below 0.6), 2 (0.6 to below 0.9), 3 (0.9 or more)

seq_text="GCUGUCACCGGAAUACCAGCAUCGUCUUGAUGCCCUUGGAAGUCCGGUCUGAUGAGUCCCUGGAGGACGAAACAGC [CUGGA]" label=3
seq_text="GCUGUCACCGGAAUACCAGCAUCGUCUUGAUGCCCUUGGAAGUCCGGUCUGAUGAGUCCUCUUGGGACGAAACAGC [UCUUG]" label=3
seq_text="GCUGUCACCGGAAUACCAGCAUCGUCUUGAUGCCCUUGGAAGUCCGGUCUGAUGAGUCCAUUUAGGACGAAACAGC [AUUUA]" label=2
seq_text="GCUGUCACCGGAAUACCAGCAUCGUCUUGAUGCCCUUGGAAGUCCGGUCUGAUGAGUCCCCGCCGGACGAAACAGC [CCGCC]" label=3
seq_text="GCUGUCACCGGAAUACCAGCAUCGUCUUGAUGCCCUUGGAAGUCCGGUCUGAUGAGUCCACAUUGGACGAAACAGC [ACAUU]" label=3
seq_text="GCUGUCACCGGAAUACCAGCAUCGUCUUGAUGCCCUUGGAAGUCCGGUCUGAUGAGUCCUGGACGGACGAAACAGC [UGGAC]" label=1
seq_text="GCUGUCACCGGAAUACCAGCAUCGUCUUGAUGCCCUUGGAAGUCCGGUCUGAUGAGUCCCCAUAGGACGAAACAGC [CCAUA]" label=2
seq_text="GCUGUCACCGGAAUACCAGCAUCGUCUUGAUGCCCUUGGAAGUCCGGUCUGAUGAGUCCGACCUGGACGAAACAGC [GACCU]" label=3
seq_text="GCUGUCACCGGAAUACCAGCAUCGUCUUGAUGCCCUUGGAAGUCCGGUCUGAUGAGUCCAGUAGGGACGAAACAGC [AGUAG]" label=2
seq_text="GCUGUCACCGGAAUACCAGCAUCGUCUUGAUGCCCUUGGAAGUCCGGUCUGAUGAGUCCCACCCGGACGAAACAGC [CACCC]" label=2
seq_text="GCUGUCACCGGAAUACCAGCAUCGUCUUGAUGCCCUUGGAAGUCCGGUCUGAUGAGUCCACACGGGACGAAACAGC [ACACG]" label=3
seq_text="GCUGUCACCGGAAUACCAGCAUCGUCUUGAUGCCCUUGGAAGUCCGGUCUGAUGAGUCCCCGACGGACGAAACAGC [CCGAC]" label=3
seq_text="GCUGUCACCGGAAUACCAGCAUCGUCUUGAUGCCCUUGGAAGUCCGGUCUGAUGAGUCCAAGCAGGACGAAACAGC [AAGCA]" label=1
seq_text="GCUGUCACCGGAAUACCAGCAUCGUCUUGAUGCCCUUGGAAGUCCGGUCUGAUGAGUCCUACCUGGACGAAACAGC [UACCU]" label=1
seq_text="GCUGUCACCGGAAUACCAGCAUCGUCUUGAUGCCCUUGGAAGUCCGGUCUGAUGAGUCCGAGCUGGACGAAACAGC [GAGCU]" label=1
seq_text="GCUGUCACCGGAAUACCAGCAUCGUCUUGAUGCCCUUGGAAGUCCGGUCUGAUGAGUCCGAUCGGGACGAAACAGC [GAUCG]" label=3
seq_text="GCUGUCACCGGAAUACCAGCAUCGUCUUGAUGCCCUUGGAAGUCCGGUCUGAUGAGUCCCGAUAGGACGAAACAGC [CGAUA]" label=1
seq_text="GCUGUCACCGGAAUACCAGCAUCGUCUUGAUGCCCUUGGAAGUCCGGUCUGAUGAGUCCACCACGGACGAAACAGC [ACCAC]" label=3
seq_text="GCUGUCACCGGAAUACCAGCAUCGUCUUGAUGCCCUUGGAAGUCCGGUCUGAUGAGUCCAAGUGGGACGAAACAGC [AAGUG]" label=2
seq_text="GCUGUCACCGGAAUACCAGCAUCGUCUUGAUGCCCUUGGAAGUCCGGUCUGAUGAGUCCCUUAUGGACGAAACAGC [CUUAU]" label=2
seq_text="GCUGUCACCGGAAUACCAGCAUCGUCUUGAUGCCCUUGGAAGUCCGGUCUGAUGAGUCCGUAAAGGACGAAACAGC [GUAAA]" label=2
seq_text="GCUGUCACCGGAAUACCAGCAUCGUCUUGAUGCCCUUGGAAGUCCGGUCUGAUGAGUCCCUCUCGGACGAAACAGC [CUCUC]" label=1
seq_text="GCUGUCACCGGAAUACCAGCAUCGUCUUGAUGCCCUUGGAAGUCCGGUCUGAUGAGUCCAAUAUGGACGAAACAGC [AAUAU]" label=1
seq_text="GCUGUCACCGGAAUACCAGCAUCGUCUUGAUGCCCUUGGAAGUCCGGUCUGAUGAGUCCUCAGAGGACGAAACAGC [UCAGA]" label=1
seq_text="GCUGUCACCGGAAUACCAGCAUCGUCUUGAUGCCCUUGGAAGUCCGGUCUGAUGAGUCCCUCGAGGACGAAACAGC [CUCGA]" label=2
seq_text="GCUGUCACCGGAAUACCAGCAUCGUCUUGAUGCCCUUGGAAGUCCGGUCUGAUGAGUCCCUGUCGGACGAAACAGC [CUGUC]" label=1
seq_text="GCUGUCACCGGAAUACCAGCAUCGUCUUGAUGCCCUUGGAAGUCCGGUCUGAUGAGUCCCCCUAGGACGAAACAGC [CCCUA]" label=2
seq_text="GCUGUCACCGGAAUACCAGCAUCGUCUUGAUGCCCUUGGAAGUCCGGUCUGAUGAGUCCAGGAGGGACGAAACAGC [AGGAG]" label=2
seq_text="GCUGUCACCGGAAUACCAGCAUCGUCUUGAUGCCCUUGGAAGUCCGGUCUGAUGAGUCCCGGCAGGACGAAACAGC [CGGCA]" label=1
seq_text="GCUGUCACCGGAAUACCAGCAUCGUCUUGAUGCCCUUGGAAGUCCGGUCUGAUGAGUCCGAACUGGACGAAACAGC [GAACU]" label=3
seq_text="GCUGUCACCGGAAUACCAGCAUCGUCUUGAUGCCCUUGGAAGUCCGGUCUGAUGAGUCCACGGAGGACGAAACAGC [ACGGA]" label=1
seq_text="GCUGUCACCGGAAUACCAGCAUCGUCUUGAUGCCCUUGGAAGUCCGGUCUGAUGAGUCCACCAAGGACGAAACAGC [ACCAA]" label=2
seq_text="GCUGUCACCGGAAUACCAGCAUCGUCUUGAUGCCCUUGGAAGUCCGGUCUGAUGAGUCCCGCAAGGACGAAACAGC [CGCAA]" label=1
seq_text="GCUGUCACCGGAAUACCAGCAUCGUCUUGAUGCCCUUGGAAGUCCGGUCUGAUGAGUCCAACGUGGACGAAACAGC [AACGU]" label=2
seq_text="GCUGUCACCGGAAUACCAGCAUCGUCUUGAUGCCCUUGGAAGUCCGGUCUGAUGAGUCCGCACUGGACGAAACAGC [GCACU]" label=3
